assay_info: Thermal stabilization of c-MYC parallel G4 (Pu27) DNA (unknown origin) assessed as melting temperature by CD spectra analysis
Rule: ΔTm under 20 °C gives n, otherwise y.

These solved cases illustrate the format of a correct answer.
Query: Kindly determine if ΔTm recorded for CN(C)CCN1CCN(c2c3ccccc3nc3c2[nH]c2ccccc23)CC1 is above or exactly 20 °C.
Response: n

Query: Could you verify whether the entry CN(C)CCCNc1c2ccccc2nc2c1[nH]c1ccccc12 shows ΔTm of no less than 20 °C?
Response: y

Query: Say whether CN(C)CCCn1c2ccccc2c2nc3ccccc3c(N3CCN(CCN(C)C)CC3)c21 shows ΔTm of 20 °C or more.
Response: n

Query: Is reported ΔTm greater than or equal to 20 °C here: CCN(CC)CCNc1c2ccccc2nc2c1oc1ccccc12
Response: y

// switching to the query molecule
Query: # bool: ΔTm of CCN(CC)CCNc1c2ccccc2nc2c1[nH]c1ccccc12 >= 20 °C
Response: y

---

Tested on: Quadruplex DNA
assay_info: Thermal stabilization of telomeric G4 quadruplex DNA (unknown origin) assessed as melting temperature by FRET method
Type: nucleic-acid assay
property_name: ΔTm

Solved entries (count: 4):
Query: Request the reported ΔTm associated with C[n+]1c2ccccc2c(NCC(=O)[C@@H](N)Cc2ccccc2)c2oc3ccccc3c21
Response: 13 °C

Query: I would be grateful if you could share the reported ΔTm for C[n+]1c2ccccc2c(NCC(=O)CNC(=O)CN)c2oc3ccccc3c21 .
Response: 4 °C

Query: What value of ΔTm has been reported for the following compound? C[n+]1c2ccccc2c(NCC(=O)CNC(=O)[C@@H](N)CCCNC(=N)N)c2oc3ccccc3c21
Response: 21 °C

Query: Which ΔTm reading was recorded for the compound C[n+]1c2ccccc2c(NCC(=O)CNC(=O)[C@@H](N)CCCCN)c2oc3ccccc3c21 ?
Response: 15 °C

Read the next record carefully.
Query: // returns reported ΔTm for input C[n+]1c2ccccc2c(NCC(=O)CNC(=O)[C@@H](N)Cc2ccccc2)c2oc3ccccc3c21
Response: 6 °C

---

Tested on: SW-620
assay_info: Antiproliferative activity against human Sw-620 cells assessed as cell viability measured after 72 hrs by MTS assay
Type: functional, cell-based
conditions: SW-620, 72 h
property_name: IC50 (nM)
The reply should be a number in nM, with the unit left off.

Query: Please state recorded IC50 (tested on SW-620) of CCN(CC)CCCNc1ccc2c(c1)c1[nH]c3ccccc3c1c[n+]2C
Response: 200

---

System: Quadruplex DNA
assay_info: Thermal stabilization of G4 quadruplex DNA (unknown origin) assessed as melting temperature at 2 uM by FRET method
Type: nucleic-acid assay
property_name: ΔTm (°C)
// note: answer is a bare numeric in °C

See these solved cases before continuing.
Query: # get_value(readout='ΔTm', item= CCN(CC)CCOC(=O)c1ccc2c(c1)c1c(c(=O)c3ccccc3n1CCN(CC)CC)n2CCN(CC)CC )
Response: 7

Query: Which ΔTm is reported for this compound? O=C(OCCCN1CCCCC1)c1ccc2c(c1)c1nc3ccccc3c(OCCCN3CCCCC3)c1n2CCCN1CCCCC1
Response: 23

Query: Look up ΔTm: O=C(OCCN1CCCC1)c1ccc2c(c1)c1c(c(=O)c3ccccc3n1CCN1CCCC1)n2CCN1CCCC1
Response: 7

Query: Recorded ΔTm for CCN(CC)CCOC(=O)c1ccc2c(c1)c1nc3ccccc3c(OCCN(CC)CC)c1n2CCN(CC)CC , please?
Response: 7

Query: Value lookup for ΔTm; key = O=C(OCCN1CCCC1)c1ccc2c(c1)c1nc3ccccc3c(OCCN3CCCC3)c1n2CCN1CCCC1
Response: 7

Read the next record carefully.
Query: Look up ΔTm: O=C(OCCCN1CCCCC1)c1ccc2c(c1)c1c(c(=O)c3ccccc3n1CCCN1CCCCC1)n2CCCN1CCCCC1
Response: 18

---

assay_info: Antiproliferative activity against human WI-38 cells assessed as cell viability by SRB assay
Type: toxicity, cell-based
property_name: IC50 (nM)
Could you give me the number in nM? Just the number is fine.

Query: Requested read-out: IC50. Entry: CCN(CC)CCCNc1ccc2c(c1)c1[nH]c3ccccc3c1c[n+]2C
Response: 200

---

System: Quadruplex DNA
assay_info: Thermal stabilization of telomeric G4 quadruplex DNA (unknown origin) assessed as melting temperature by FRET method
Assay type: nucleic-acid assay
Parameter: ΔTm. Scope: all listed entries.
Answer with a number only, understood to be in °C.

Previously resolved entries follow.
Query: Requested read-out ΔTm, target or system Quadruplex DNA, entry C[n+]1c2ccccc2c(NCC(=O)CNC(=O)[C@@H](N)Cc2cnc[nH]2)c2oc3ccccc3c21
Response: 8

Query: Give recorded ΔTm with Quadruplex DNA for the following compound: C[n+]1c2ccccc2c(NCC(=O)[C@@H](N)CCCCNC(=O)CN)c2oc3ccccc3c21
Response: 24

Query: Find ΔTm (Quadruplex DNA) for the entry C[n+]1c2ccccc2c(NCC(N)=O)c2oc3ccccc3c21
Response: 12

Continuing:
Query: What ΔTm appears in the records for this compound with Quadruplex DNA? C[n+]1c2ccccc2c(NCC(=O)[C@@H](N)Cc2cnc[nH]2)c2oc3ccccc3c21
Response: 17

---

study_system: Telomerase reverse transcriptase (Homo sapiens)
Sequence (O14746 whole entry): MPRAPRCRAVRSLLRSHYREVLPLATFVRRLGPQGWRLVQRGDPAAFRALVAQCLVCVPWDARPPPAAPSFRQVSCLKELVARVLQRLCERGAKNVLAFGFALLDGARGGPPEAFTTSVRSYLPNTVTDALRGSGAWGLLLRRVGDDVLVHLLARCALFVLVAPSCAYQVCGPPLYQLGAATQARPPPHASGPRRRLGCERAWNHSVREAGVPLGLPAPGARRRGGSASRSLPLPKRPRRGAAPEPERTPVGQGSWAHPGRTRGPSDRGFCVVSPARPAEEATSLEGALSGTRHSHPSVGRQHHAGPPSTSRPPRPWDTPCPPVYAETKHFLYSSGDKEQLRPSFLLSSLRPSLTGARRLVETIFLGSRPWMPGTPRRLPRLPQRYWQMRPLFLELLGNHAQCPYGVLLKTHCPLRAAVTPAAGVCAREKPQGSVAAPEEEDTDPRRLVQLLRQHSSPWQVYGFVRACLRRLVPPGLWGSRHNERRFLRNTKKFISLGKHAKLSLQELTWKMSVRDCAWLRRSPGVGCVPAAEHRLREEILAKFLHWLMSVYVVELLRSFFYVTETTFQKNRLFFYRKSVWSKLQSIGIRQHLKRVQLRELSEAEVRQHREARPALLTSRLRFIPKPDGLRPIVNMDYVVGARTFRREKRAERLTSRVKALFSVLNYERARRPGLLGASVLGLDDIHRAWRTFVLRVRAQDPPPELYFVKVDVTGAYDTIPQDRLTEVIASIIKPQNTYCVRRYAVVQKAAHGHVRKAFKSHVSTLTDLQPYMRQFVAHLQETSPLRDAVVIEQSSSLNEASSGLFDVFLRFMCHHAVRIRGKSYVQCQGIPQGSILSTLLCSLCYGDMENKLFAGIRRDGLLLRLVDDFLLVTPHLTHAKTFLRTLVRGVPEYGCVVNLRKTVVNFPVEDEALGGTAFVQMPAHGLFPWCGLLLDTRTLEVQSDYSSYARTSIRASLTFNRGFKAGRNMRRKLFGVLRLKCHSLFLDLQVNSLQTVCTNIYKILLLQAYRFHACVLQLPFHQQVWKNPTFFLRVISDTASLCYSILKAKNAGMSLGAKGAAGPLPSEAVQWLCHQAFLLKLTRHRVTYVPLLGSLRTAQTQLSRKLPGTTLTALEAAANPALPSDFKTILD
assay_info: Inhibition of telomerase (unknown origin)
property_name: IC50
# answer = value followed by unit

Query: Entry CN(C)CCCNc1c2ccccc2nc2c1[nH]c1ccccc12 : reported IC50 = ?
Response: 400 nM

---

assay_info: Cytotoxicity against Sprague-Dawley rat hepatocytes assessed as cell viability incubated for 96 hrs by CellTiter 96 aqueous Non-Radioactive cell proliferation assay
Assay type: toxicity, cell-based, Hepatocyte
property_name: IC50 at 96 h

Query: Tell me the measured IC50 at 96 h of CCN(CC)CCOC(=O)c1ccc2c(c1)c1c(c(=O)c3ccccc3n1CCN(CC)CC)n2CCN(CC)CC , please.
Response: > 100 µM

Let's switch to this compound now.
Query: If you can, please state the reported IC50 at 96 h value of CCN(CC)CCOC(=O)c1ccc2c(c1)c1nc3ccccc3c(OCCN(CC)CC)c1n2CCN(CC)CC .
Response: > 100 µM

---

assay_info: Antiproliferative activity against HEK293T cells assessed as cell viability measured after 72 hrs by MTS assay
Type: toxicity, cell-based, HEK-293T
conditions: human
property_name: IC50 at 72 h
Record the result as number plus unit.

Query: I am curious: what IC50 at 72 h value has been reported for CCN(CC)CCCNc1ccc2c(c1)c1[nH]c3ccccc3c1c[n+]2C ?
Response: 200 nM

---

assay_info: Thermal stabilization of hybrid G4 telo21 DNA (unknown origin) assessed as melting temperature by FRET method
Could you please mark class 1 for values of ΔTm below 10 °C and class 0 for values at or above it?

Query: Dear colleague, could you confirm whether ΔTm of CCN(CC)CCCN1/C(=C/c2c3ccccc3[n+](C)c3c2oc2ccccc23)Sc2ccccc21 falls below 10 °C? Thanks.
Response: class 0

Query: Input C[n+]1c2ccccc2c(/C=C2\Sc3ccccc3N2CCCN2CCCC2)c2oc3ccccc3c21 ; condition: ΔTm strictly below 10 °C. Does it hold?
Response: class 0

Query: A record lists C[n+]1c2ccccc2c(/C=C2\Sc3ccccc3N2CCCN2CCOCC2)c2oc3ccccc3c21 . Is its ΔTm below 10 °C?
Response: class 0

Query: Dear reviewer, please state whether CCCN(CCC)CCCN1/C(=C/c2c3ccccc3[n+](C)c3c2oc2ccccc23)Sc2ccccc21 has ΔTm strictly beneath 10 °C.
Response: class 0

---

Tested on: HCT-116
assay_info: Cytotoxicity against human HCT-116 cells assessed as cell viability incubated for 96 hrs by CellTiter 96 aqueous Non-Radioactive cell proliferation assay
Assay type: functional, cell-based
conditions: HCT-116, 96 h
property_name: IC50 (µM)
Write the answer as a number in µM, unit excluded.

Query: // lookup IC50 for O=C(OCCCN1CCCCC1)c1ccc2c(c1)c1c(c(=O)c3ccccc3n1CCCN1CCCCC1)n2CCCN1CCCCC1
Response: 0.4

Query: For the compound CCN(CC)CCOC(=O)c1ccc2c(c1)c1c(c(=O)c3ccccc3n1CCN(CC)CC)n2CCN(CC)CC , what IC50 is on record?
Response: 1

# ---- query compound ----
Query: Give the measured IC50 of CCN(CC)CCOC(=O)c1ccc2c(c1)c1nc3ccccc3c(OCCN(CC)CC)c1n2CCN(CC)CC .
Response: 1

---

assay_info: Thermal stabilization of parallel G4 KRAS21 DNA (unknown origin) assessed as melting temperature by FRET melting assay
property_name: ΔTm (°C)
Give your result in °C as a bare value.

Use these answered entries as a reference point.
Query: Please look up its ΔTm: CCN(CC)CCOC(=O)c1ccc2c(c1)c1c(c(=O)c3ccccc3n1CCN(CC)CC)n2CCN(CC)CC
Response: 7

Query: Which ΔTm is listed for O=C(OCCN1CCCC1)c1ccc2c(c1)c1c(c(=O)c3ccccc3n1CCN1CCCC1)n2CCN1CCCC1 ?
Response: 16

Query: Which ΔTm reading was recorded for the compound CCN(CC)CCCNc1ccc2c(c1)c1[nH]c3ccccc3c1c[n+]2C ?
Response: 15

Query: I am curious: what ΔTm value has been reported for O=C(OCCCN1CCCCC1)c1ccc2c(c1)c1c(c(=O)c3ccccc3n1CCCN1CCCCC1)n2CCCN1CCCCC1 ?
Response: 22

Query: Can you share its ΔTm? I mean this compound: C[n+]1cc2c3ccccc3[nH]c2c2cc(Br)ccc21
Response: 4

More entries:
Query: # lookup: ΔTm of CCN(CC)CCOC(=O)c1ccc2c(c1)c1nc3ccccc3c(OCCN(CC)CC)c1n2CCN(CC)CC
Response: 12

Query: Name the reported ΔTm value associated with the compound O=C(OCCN1CCCC1)c1ccc2c(c1)c1nc3ccccc3c(OCCN3CCCC3)c1n2CCN1CCCC1
Response: 12

Query: Form field: reported ΔTm of O=C(OCCCN1CCCCC1)c1ccc2c(c1)c1nc3ccccc3c(OCCCN3CCCCC3)c1n2CCCN1CCCCC1
Response: 18

Source of measurements: ChEMBL document CHEMBL5104123
